Test system: THLE-5B-3A4
ASSAY_PROTOCOL: LC/LC/MS/MS peptide hits of biomarker polypeptides in conditioned media of treated hepatocytes
Type: cell-based, human
CONDITION_CONTEXT: 20 hr, concentrations of Table 1
The following compounds are listed with their measured peptide hits BMS-PTX-062 values.

| COMPOUND | peptide hits BMS-PTX-062 |
| --- | --- |
| CC1(COc2ccc(CC3SC(=O)NC3=O)cc2)CCCCC1 (stereo not shown) [Ciglitazone] | 27 |
| Cc1oc(-c2ccccc2)nc1CCOc1ccc(C[C@H](Nc2ccccc2C(=O)c2ccccc2)C(=O)O)cc1 [Farglitazar] | 29 |
| Cc1c(C)c2c(c(C)c1O)CCC(C)(COc1ccc(CC3SC(=O)NC3=O)cc1)O2 (stereo not shown) [Troglitazone] | 4 |
| CCO[C@@H](Cc1ccc(OCCc2ccc(OS(C)(=O)=O)cc2)cc1)C(=O)O [Tesaglitazar] | 1 |

====

The following compounds are listed with their measured peptide hits BMS-PTX-260 values.
Tested on: THLE-5B-3A4
ASSAY_PROTOCOL: LC/LC/MS/MS peptide hits of biomarker polypeptides in conditioned media of treated hepatocytes
Type: cell-based, human
CONDITION_CONTEXT: 20 hr, concentrations of Table 1

| COMPOUND | MEASUREMENT_TARGET | peptide hits BMS-PTX-260 |
| --- | --- | --- |
| Cc1oc(-c2ccccc2)nc1CCOc1ccc(C[C@H](Nc2ccccc2C(=O)c2ccccc2)C(=O)O)cc1 | THLE-5B-3A4 | 21 |
| CCO[C@@H](Cc1ccc(OCCc2ccc(OS(C)(=O)=O)cc2)cc1)C(=O)O | THLE-5B-3A4 | 0 |
| CC1(COc2ccc(CC3SC(=O)NC3=O)cc2)CCCCC1 (stereo not shown) | THLE-5B-3A4 | 24 |
| Cc1c(C)c2c(c(C)c1O)CCC(C)(COc1ccc(CC3SC(=O)NC3=O)cc1)O2 (stereo not shown) | THLE-5B-3A4 | 4 |

====

System: THLE-5B-3A4
ASSAY_PROTOCOL: LC/LC/MS/MS peptide hits of biomarker polypeptides in conditioned media of treated hepatocytes
Type: cell-based, human
CONDITION_CONTEXT: 20 hr, concentrations of Table 1
The following compounds are listed with their measured peptide hits BMS-PTX-265 values.
OUTCOME_MEASURE: peptide hits BMS-PTX-265

| COMPOUND | MEASUREMENT_TARGET | OBSERVED_VALUE |
| --- | --- | --- |
| CC1(COc2ccc(CC3SC(=O)NC3=O)cc2)CCCCC1 (stereo not shown) | THLE-5B-3A4 | 93 |
| Cc1oc(-c2ccccc2)nc1CCOc1ccc(C[C@H](Nc2ccccc2C(=O)c2ccccc2)C(=O)O)cc1 | THLE-5B-3A4 | 49 |
| Cc1c(C)c2c(c(C)c1O)CCC(C)(COc1ccc(CC3SC(=O)NC3=O)cc1)O2 (stereo not shown) | THLE-5B-3A4 | 66 |
| CCO[C@@H](Cc1ccc(OCCc2ccc(OS(C)(=O)=O)cc2)cc1)C(=O)O | THLE-5B-3A4 | 8 |

====

System: HHA Cells
ASSAY_PROTOCOL: Cytotoxicity in the hepatocyte culture system, inhibition of ATP synthesis (CellTiter-Glo bioluminescence)
Type: cell-based, human
CONDITION_CONTEXT: Table 1, 8 treatments of the discovery panel
From the text: These immortalized cells are reported to be similar to quiescent normal human hepatocytes. […] The THLE-5 cell line (also named THLE-5B) was previously deposited under the terms and conditions of the Budapest Treaty at the American Type Culture Collection on Apr. […]

| COMPOUND | MEASUREMENT_TARGET | Toxicity in HHA Cells |
| --- | --- | --- |
| CC(C)c1nc(CN(C)C(=O)N[C@H](C(=O)N[C@@H](Cc2ccccc2)C[C@H](O)[C@H](Cc2ccccc2)NC(=O)OCc2cncs2)C(C)C)cs1 | HHA Cells | Toxic |
| CC1(COc2ccc(CC3SC(=O)NC3=O)cc2)CCCCC1 (stereo not drawn) | HHA Cells | Toxic |
| Cc1c(C)c2c(c(C)c1O)CCC(C)(COc1ccc(CC3SC(=O)NC3=O)cc1)O2 (stereo not drawn) | HHA Cells | Toxic |
| CCO[C@@H](Cc1ccc(OCCc2ccc(OS(C)(=O)=O)cc2)cc1)C(=O)O | HHA Cells | Non-Toxic |
| Cc1oc(-c2ccccc2)nc1CCOc1ccc(C[C@H](Nc2ccccc2C(=O)c2ccccc2)C(=O)O)cc1 | HHA Cells | Toxic |
| CN(CCOc1ccc(CC2SC(=O)NC2=O)cc1)c1ccccn1 (stereo not drawn) | HHA Cells | Non-Toxic |

====

System: HHA Cells
ASSAY_PROTOCOL: Cytotoxicity in the hepatocyte culture system, inhibition of ATP synthesis (CellTiter-Glo bioluminescence)
Assay type: cell-based, human
CONDITION_CONTEXT: Table 2, panel of 20 treatments

| ITEM_SMILES | Toxicity in HHA Cells |
| --- | --- |
| Cc1oc(-c2ccccc2)nc1CCOc1ccc(C[C@H](Nc2ccccc2C(=O)c2ccccc2)C(=O)O)cc1 | Toxic |
| C#C[C@]1(O)CC[C@H]2[C@@H]3CCc4cc(O)ccc4[C@H]3CC[C@@]21C | Non-Toxic |
| CC/C(=C(\c1ccccc1)c1ccc(OCCN(C)C)cc1)c1ccccc1 | Toxic |
| O=C(O)Cc1ccccc1Nc1c(Cl)cccc1Cl | Non-Toxic |
| O=C(c1ccc(OCCN2CCCCC2)cc1)c1c(-c2ccc(O)cc2)sc2cc(O)ccc12 | Toxic |
